System: Ctenocephalides felis
testProtocol: Efficacy of compounds against fleas following ingestion (membrane feeding on treated bovine blood)
Type: in vivo
conditionSet: 10 adult Ctenocephalides felis feeding on treated bovine blood; assessment at 72 hours after application vs untreated controls
Some molecules, each annotated with its measured EC50.

molecule	assayReadout	observed
CCN1CCN(C(=O)c2ccc(C3=NOC(c4cc(Cl)cc(Cl)c4)(C(F)(F)F)C3)cc2C)C1=O (stereo not drawn)	EC50	≤ 10 µg/mL
O=C1CN(C(=O)c2ccc(C3=NOC(c4cc(Cl)cc(C(F)(F)F)c4)(C(F)(F)F)C3)cc2C(F)(F)F)CN1CC(F)(F)F (stereo not drawn)	EC50	≤ 1 µg/mL
Cc1cc(C2=NOC(c3cc(Cl)cc(C(F)(F)F)c3)(C(F)(F)F)C2)ccc1C(=O)N1CCN(CCC(F)(F)F)C1 (stereo not drawn)	EC50	≤ 10 µg/mL
CCCN1C(=O)CN(C(=O)c2ccc(C3=NOC(c4cc(Cl)cc(C(F)(F)F)c4)(C(F)(F)F)C3)cc2C(F)(F)F)CC1=O (stereo not drawn)	EC50	≤ 10 µg/mL

Query: Name the recorded EC50 of the item O=C1CN(C(=O)c2ccc(C3=NOC(c4cc(Cl)cc(C(F)(F)F)c4)(C(F)(F)F)C3)cc2CC(F)(F)F)CN1CCC(F)(F)F (stereo not drawn) in your answer.
Result: ≤ 1 µg/mL

Query: Supply measured EC50 of Cc1cc(C2=NOC(c3cc(Cl)cc(C(F)(F)F)c3)(C(F)(F)F)C2)ccc1C(=O)N1CC(=O)N(CS(C)(=O)=O)C1 (stereo not drawn) in your reply.
Result: ≤ 10 µg/mL
